Attribution: patent US9233983B2

# assayedTarget: UniProt Q06187
# experimentalProtocol: Recombinant Human Bruton's Tyrosine Kinase (Btk) Inhibition Assay (HTRF KinEASE-TK)
# Type: biochemical
# statedConditions: 20 ng/ml rhBtk, 77 μM ATP (KM), 1 μM TK-Biotin substrate, 90 min; read-out: hBTK IC50
Field: label. Allowed values: satisfied (IC50 < 4 nM) or not satisfied (IC50 >= 4 nM).

- smilesRepresentation: "Cc1c(-c2ncnc3[nH]c(-c4ccc(C5CCN(CCO)CC5)cc4)cc23)cccc1-n1ccc2cc(C3CC3)ccc2c1=O"
  assayedTarget: "UniProt Q06187"
  assignedLabel: "not satisfied"
- smilesRepresentation: "Cc1c(-c2ncnc3[nH]c(-c4ccc(C(=O)N5CCC(O)CC5)cc4)cc23)cccc1N1CCOc2cc(C3CC3)ccc2C1=O"
  assayedTarget: "UniProt Q06187"
  assignedLabel: "not satisfied"
- smilesRepresentation: "CCN1CC=C(c2cc3c(-c4cccc(N5CCOc6cc(C7CC7)cc(F)c6C5=O)c4CO)ccnc3[nH]2)CC1"
  assayedTarget: "UniProt Q06187"
  assignedLabel: "not satisfied"
- smilesRepresentation: "Cc1c(-c2ncnc3[nH]c(C4=CCCNC4)cc23)cccc1N1CCOc2cc(C3CC3)ccc2C1=O"
  assayedTarget: "UniProt Q06187"
  assignedLabel: "not satisfied"
- smilesRepresentation: "Cc1c(-c2ncnc3[nH]c(-c4ccc(C(=O)N5CCCC5)cc4)cc23)cccc1N1CCOc2cc(C3CC3)ccc2C1=O"
  assayedTarget: "UniProt Q06187"
  assignedLabel: "not satisfied"
- smilesRepresentation: "N#CCC(=O)N1CC=C(c2cc3c(-c4cccc(N5CCOc6cc(C7CC7)cc(F)c6C5=O)c4CO)ccnc3[nH]2)CC1"
  assayedTarget: "UniProt Q06187"
  assignedLabel: "satisfied"

----------
Reported IC50 is given for each of the following compounds.
# assayedTarget: human Bruton's Tyrosine Kinase (Btk) (Homo sapiens (Human), UniProt Q06187)
# Sequence (Q06187 whole entry): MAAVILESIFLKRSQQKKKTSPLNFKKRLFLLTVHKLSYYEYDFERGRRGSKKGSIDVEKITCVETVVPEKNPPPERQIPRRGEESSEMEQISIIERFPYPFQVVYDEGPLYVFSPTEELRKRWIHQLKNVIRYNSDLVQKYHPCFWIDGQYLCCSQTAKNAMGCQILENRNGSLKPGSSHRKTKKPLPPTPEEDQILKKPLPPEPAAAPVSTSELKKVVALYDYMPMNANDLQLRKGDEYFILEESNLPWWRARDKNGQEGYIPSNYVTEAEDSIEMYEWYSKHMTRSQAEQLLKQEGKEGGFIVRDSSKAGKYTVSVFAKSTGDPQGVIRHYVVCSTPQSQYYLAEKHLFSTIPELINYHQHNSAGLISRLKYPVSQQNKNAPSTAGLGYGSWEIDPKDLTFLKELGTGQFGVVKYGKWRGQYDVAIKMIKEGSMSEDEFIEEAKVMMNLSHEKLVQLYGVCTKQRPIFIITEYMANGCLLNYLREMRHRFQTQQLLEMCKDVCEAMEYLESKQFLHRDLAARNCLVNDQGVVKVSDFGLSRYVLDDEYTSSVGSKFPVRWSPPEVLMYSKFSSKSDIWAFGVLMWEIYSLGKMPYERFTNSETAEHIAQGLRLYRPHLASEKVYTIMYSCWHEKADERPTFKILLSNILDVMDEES
# experimentalProtocol: Recombinant Human Bruton's Tyrosine Kinase (Btk) Inhibition Assay (HTRF KinEASE-TK)
# Type: biochemical
# statedConditions: 20 ng/ml rhBtk, 77 μM ATP (KM), 1 μM TK-Biotin substrate, 90 min; read-out: hBTK IC50

- compound: "Cc1c(-c2ncnc3[nH]c(C4=CCN(CCCO)CC4)cc23)cccc1N1CCOc2cc(C3CC3)ccc2C1=O"
  comparator: "="
  IC50, nM: 272
- compound: "CCN1CCN(Cc2ccc(-c3cc4c(-c5cccc(N6CCOc7cc(C8CC8)ccc7C6=O)c5CO)ccnc4[nH]3)nc2)CC1"
  comparator: "="
  IC50, nM: 2
- compound: "CN1CCCC(F)(c2ccc(-c3cc4c(-c5cccc(N6CCOc7cc(C8CC8)ccc7C6=O)c5CO)ccnc4[nH]3)cc2)C1 (stereo not drawn)"
  comparator: "="
  IC50, nM: 3.5
- compound: "Cc1c(-c2ncnc3[nH]c(-c4ccc(C(=O)NCC(F)(F)F)cc4)cc23)cccc1N1CCOc2cc(C3CC3)ccc2C1=O"
  comparator: ">"
  IC50, nM: 1000
- compound: "O=C1c2ccc(C3CC3)cc2OCCN1c1cccc(-c2ccnc3[nH]c(-c4ccc(CN5CCN(C6CC6)CC5)cn4)cc23)c1CO"
  comparator: "="
  IC50, nM: 3
- compound: "CN1CCN(Cc2ccc(-c3cc4c(-c5cccc(N6CCOc7cc(C8CC8)cc(F)c7C6=O)c5CO)ccnc4[nH]3)nc2)CC1=O"
  comparator: "="
  IC50, nM: 1.5
